Target: TNK2 (human) (UniProt Q07912)
Sequence (Q07912 whole entry, looked up): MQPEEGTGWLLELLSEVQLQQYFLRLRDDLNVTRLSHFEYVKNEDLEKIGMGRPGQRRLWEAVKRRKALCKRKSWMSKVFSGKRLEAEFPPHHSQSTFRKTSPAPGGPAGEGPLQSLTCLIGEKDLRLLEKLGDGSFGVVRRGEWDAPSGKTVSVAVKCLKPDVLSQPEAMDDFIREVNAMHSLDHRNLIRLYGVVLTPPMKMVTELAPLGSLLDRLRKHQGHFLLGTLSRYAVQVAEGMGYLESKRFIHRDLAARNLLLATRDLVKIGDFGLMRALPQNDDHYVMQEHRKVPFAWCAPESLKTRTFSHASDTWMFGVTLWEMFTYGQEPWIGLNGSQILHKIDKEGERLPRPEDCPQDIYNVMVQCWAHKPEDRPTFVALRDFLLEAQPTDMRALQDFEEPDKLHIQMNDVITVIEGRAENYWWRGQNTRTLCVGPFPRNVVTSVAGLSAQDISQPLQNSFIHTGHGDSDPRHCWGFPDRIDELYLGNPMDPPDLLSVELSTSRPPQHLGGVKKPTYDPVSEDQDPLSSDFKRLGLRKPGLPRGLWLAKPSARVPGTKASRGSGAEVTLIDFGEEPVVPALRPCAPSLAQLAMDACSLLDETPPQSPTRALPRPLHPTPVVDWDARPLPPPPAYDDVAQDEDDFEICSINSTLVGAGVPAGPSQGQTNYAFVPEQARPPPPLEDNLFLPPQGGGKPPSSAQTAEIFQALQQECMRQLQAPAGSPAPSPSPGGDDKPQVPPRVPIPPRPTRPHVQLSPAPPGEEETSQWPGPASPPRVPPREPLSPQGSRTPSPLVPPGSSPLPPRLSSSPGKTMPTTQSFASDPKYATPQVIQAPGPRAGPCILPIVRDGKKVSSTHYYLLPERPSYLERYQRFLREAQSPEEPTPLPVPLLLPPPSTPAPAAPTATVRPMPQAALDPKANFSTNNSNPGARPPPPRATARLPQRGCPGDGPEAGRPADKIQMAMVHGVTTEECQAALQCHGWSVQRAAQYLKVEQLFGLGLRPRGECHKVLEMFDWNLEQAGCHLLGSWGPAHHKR
Experiment: KINOMEscan competition binding
Settings: compound 10.0 µM
Quantity Name: kinase still bound, per cent of control (%)
Give bare numbers, in %.

Chem Smiles	Obs Value
CCC(=O)N1CCN(c2ccc(-n3c(=O)ccc4cnc5ccc(-c6cnc7ccccc7c6)cc5c43)cc2C(F)(F)F)CC1	51

Batch lookup, kinase still bound, per cent of control per entry.
1. COC(=O)Nc1ccc(-c2nc(N3CCOCC3)c3cnn(C4CCN(C(=O)OC)CC4)c3n2)cc1
2. COc1ccc(-c2ccc3c(N4CCOCC4)nc(N4C[C@@H](C)O[C@@H](C)C4)nc3n2)cc1CO
3. CC(C)n1nc(-c2cc3cc(O)ccc3[nH]2)c2c(N)ncnc21

Reply:
[100, 100, 48]

----------
Target: EPHA2 (human) (UniProt P29317)
Sequence (P29317 whole entry, looked up): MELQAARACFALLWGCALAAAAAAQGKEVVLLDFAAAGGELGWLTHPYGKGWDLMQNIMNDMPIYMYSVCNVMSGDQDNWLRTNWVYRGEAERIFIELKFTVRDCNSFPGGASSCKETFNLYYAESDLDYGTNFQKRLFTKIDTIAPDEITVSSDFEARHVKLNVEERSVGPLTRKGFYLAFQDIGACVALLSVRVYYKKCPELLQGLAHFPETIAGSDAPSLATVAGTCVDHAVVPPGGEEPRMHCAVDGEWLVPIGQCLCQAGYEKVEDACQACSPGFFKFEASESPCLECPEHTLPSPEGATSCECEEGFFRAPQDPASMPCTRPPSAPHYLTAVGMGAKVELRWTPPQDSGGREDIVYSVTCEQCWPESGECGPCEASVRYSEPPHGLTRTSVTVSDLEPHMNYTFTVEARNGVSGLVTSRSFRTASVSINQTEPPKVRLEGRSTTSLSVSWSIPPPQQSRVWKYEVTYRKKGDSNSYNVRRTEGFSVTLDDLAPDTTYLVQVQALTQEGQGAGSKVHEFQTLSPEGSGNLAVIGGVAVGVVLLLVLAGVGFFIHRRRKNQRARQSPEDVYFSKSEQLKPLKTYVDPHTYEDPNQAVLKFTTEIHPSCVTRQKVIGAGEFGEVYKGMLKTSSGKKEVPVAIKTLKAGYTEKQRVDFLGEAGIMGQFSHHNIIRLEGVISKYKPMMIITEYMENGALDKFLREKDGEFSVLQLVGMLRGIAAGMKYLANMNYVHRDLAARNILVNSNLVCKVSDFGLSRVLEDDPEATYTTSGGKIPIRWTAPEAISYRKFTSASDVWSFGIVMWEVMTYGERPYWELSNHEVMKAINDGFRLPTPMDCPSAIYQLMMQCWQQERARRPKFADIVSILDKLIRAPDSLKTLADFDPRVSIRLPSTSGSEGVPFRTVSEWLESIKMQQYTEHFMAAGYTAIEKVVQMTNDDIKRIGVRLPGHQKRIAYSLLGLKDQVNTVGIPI
Assay: KINOMEscan competition binding
Details: compound 10.0 µM
Quantity Name: kinase still bound, per cent of control
Reply with the number, then its unit.

Below are worked cases with known answers.
Chem Smiles	Test System	kinase still bound, per cent of control
COc1ccc(-c2ccc3c(N4CCOCC4)nc(N4C[C@@H](C)O[C@@H](C)C4)nc3n2)cc1CO	EPHA2 (human) (UniProt P29317)	100%
COC(=O)Nc1ccc(-c2nc(N3CCOCC3)c3cnn(C4CCN(C(=O)OC)CC4)c3n2)cc1	EPHA2 (human) (UniProt P29317)	100%
CCC(=O)N1CCN(c2ccc(-n3c(=O)ccc4cnc5ccc(-c6cnc7ccccc7c6)cc5c43)cc2C(F)(F)F)CC1	EPHA2 (human) (UniProt P29317)	59%

Now look at this entry.
Query: For the record CC(C)n1nc(-c2cc3cc(O)ccc3[nH]2)c2c(N)ncnc21 , what value of kinase still bound, per cent of control is listed for EPHA2 (human) (UniProt P29317)?
Reply: 9.4%

----------
Biological target: NEK5 (human)
Experiment: KINOMEscan competition binding
Settings: compound 10.0 µM
Quantity Name: kinase still bound, per cent of control (%)
Answers are plain numbers, in %.

Below are worked cases with known answers.
Chem Smiles	kinase still bound, per cent of control (%)
COC(=O)Nc1ccc(-c2nc(N3CCOCC3)c3cnn(C4CCN(C(=O)OC)CC4)c3n2)cc1	100
CCC(=O)N1CCN(c2ccc(-n3c(=O)ccc4cnc5ccc(-c6cnc7ccccc7c6)cc5c43)cc2C(F)(F)F)CC1	5.8

Batch lookup, kinase still bound, per cent of control per entry.
1. COc1ccc(-c2ccc3c(N4CCOCC4)nc(N4C[C@@H](C)O[C@@H](C)C4)nc3n2)cc1CO
2. CC(C)n1nc(-c2cc3cc(O)ccc3[nH]2)c2c(N)ncnc21

Reply:
100
86

----------
Biological target: MTOR (human) (UniProt P42345)
Quantity Name: pIC50
Give bare numbers, as −log10 of the molar value.

Query: Return reported pIC50; argument: COC(=O)Nc1ccc(-c2nc(N3CCOCC3)c3cnn(C4CCN(C(=O)OC)CC4)c3n2)cc1
Reply: 7.80

----------
Molecular target: UniProt Q8WTQ7
Sequence (Q8WTQ7 whole entry, looked up): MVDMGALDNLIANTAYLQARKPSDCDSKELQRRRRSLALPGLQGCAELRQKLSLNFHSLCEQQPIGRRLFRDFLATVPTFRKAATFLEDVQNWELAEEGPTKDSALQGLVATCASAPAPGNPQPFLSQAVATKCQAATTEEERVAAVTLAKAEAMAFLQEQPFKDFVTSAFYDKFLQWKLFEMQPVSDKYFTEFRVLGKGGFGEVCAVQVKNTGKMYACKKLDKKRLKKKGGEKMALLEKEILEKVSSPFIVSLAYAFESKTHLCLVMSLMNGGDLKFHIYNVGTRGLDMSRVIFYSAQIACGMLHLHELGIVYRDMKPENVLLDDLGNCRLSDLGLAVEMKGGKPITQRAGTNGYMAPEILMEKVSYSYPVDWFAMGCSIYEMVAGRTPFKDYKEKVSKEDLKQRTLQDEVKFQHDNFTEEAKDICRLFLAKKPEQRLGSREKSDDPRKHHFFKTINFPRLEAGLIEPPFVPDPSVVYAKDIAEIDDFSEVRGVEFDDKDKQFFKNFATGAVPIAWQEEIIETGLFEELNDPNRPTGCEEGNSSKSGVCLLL
Assay: KINOMEscan competition binding
Settings: compound 10.0 µM
Quantity Name: kinase still bound, per cent of control
Reply with the number, then its unit.

Below are worked cases with known answers.
Chem Smiles	kinase still bound, per cent of control
COC(=O)Nc1ccc(-c2nc(N3CCOCC3)c3cnn(C4CCN(C(=O)OC)CC4)c3n2)cc1	100%
COc1ccc(-c2ccc3c(N4CCOCC4)nc(N4C[C@@H](C)O[C@@H](C)C4)nc3n2)cc1CO	100%
CCC(=O)N1CCN(c2ccc(-n3c(=O)ccc4cnc5ccc(-c6cnc7ccccc7c6)cc5c43)cc2C(F)(F)F)CC1	100%

Now look at this entry.
Query: Return reported kinase still bound, per cent of control; argument: CC(C)n1nc(-c2cc3cc(O)ccc3[nH]2)c2c(N)ncnc21
Reply: 2.9%

----------
Target: UniProtKB O75582
Sequence (O75582 whole entry, looked up): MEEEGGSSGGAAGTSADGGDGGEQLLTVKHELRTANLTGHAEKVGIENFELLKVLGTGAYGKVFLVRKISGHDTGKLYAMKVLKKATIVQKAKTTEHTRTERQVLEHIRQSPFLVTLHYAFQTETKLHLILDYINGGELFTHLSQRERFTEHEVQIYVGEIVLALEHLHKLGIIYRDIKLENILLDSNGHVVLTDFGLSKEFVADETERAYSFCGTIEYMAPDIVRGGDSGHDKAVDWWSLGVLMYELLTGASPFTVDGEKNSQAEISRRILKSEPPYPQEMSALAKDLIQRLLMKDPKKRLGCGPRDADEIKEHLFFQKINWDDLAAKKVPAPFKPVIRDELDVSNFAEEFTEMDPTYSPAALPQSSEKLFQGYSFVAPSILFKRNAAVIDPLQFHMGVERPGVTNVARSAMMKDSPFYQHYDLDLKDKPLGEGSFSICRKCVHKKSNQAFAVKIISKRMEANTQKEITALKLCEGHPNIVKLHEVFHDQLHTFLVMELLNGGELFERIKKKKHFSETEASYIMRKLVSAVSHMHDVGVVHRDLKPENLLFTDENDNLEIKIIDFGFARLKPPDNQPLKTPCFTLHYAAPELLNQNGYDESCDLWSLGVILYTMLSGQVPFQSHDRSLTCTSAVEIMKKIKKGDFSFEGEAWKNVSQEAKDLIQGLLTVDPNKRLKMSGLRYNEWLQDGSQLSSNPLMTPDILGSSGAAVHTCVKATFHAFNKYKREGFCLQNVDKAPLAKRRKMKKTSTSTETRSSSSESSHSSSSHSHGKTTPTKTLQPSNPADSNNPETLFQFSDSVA
Test: KINOMEscan competition binding
Conditions: compound 10.0 µM
Quantity Name: kinase still bound, per cent of control
Reply with the number, then its unit.

Chem Smiles	kinase still bound, per cent of control
CC(C)n1nc(-c2cc3cc(O)ccc3[nH]2)c2c(N)ncnc21	100%
COC(=O)Nc1ccc(-c2nc(N3CCOCC3)c3cnn(C4CCN(C(=O)OC)CC4)c3n2)cc1	100%
COc1ccc(-c2ccc3c(N4CCOCC4)nc(N4C[C@@H](C)O[C@@H](C)C4)nc3n2)cc1CO	100%

Now look at this entry.
Query: Return reported kinase still bound, per cent of control; argument: CCC(=O)N1CCN(c2ccc(-n3c(=O)ccc4cnc5ccc(-c6cnc7ccccc7c6)cc5c43)cc2C(F)(F)F)CC1
Reply: 100%

----------
Molecular target: BLK (human)
Assay: KINOMEscan competition binding
Settings: compound 10.0 µM
Quantity Name: kinase still bound, per cent of control (%)
Answers are plain numbers, in %.

Chem Smiles	Obs Value
CC(C)n1nc(-c2cc3cc(O)ccc3[nH]2)c2c(N)ncnc21	1.2
CCC(=O)N1CCN(c2ccc(-n3c(=O)ccc4cnc5ccc(-c6cnc7ccccc7c6)cc5c43)cc2C(F)(F)F)CC1	75
COc1ccc(-c2ccc3c(N4CCOCC4)nc(N4C[C@@H](C)O[C@@H](C)C4)nc3n2)cc1CO	100

Now look at this entry.
Query: Return reported kinase still bound, per cent of control; argument: COC(=O)Nc1ccc(-c2nc(N3CCOCC3)c3cnn(C4CCN(C(=O)OC)CC4)c3n2)cc1
Reply: 100

----------
Molecular target: MELK (human)
Conditions: compound 10.0 µM
Quantity Name: per cent of control (%)
Numbers only, in %.

Below are worked cases with known answers.
Chem Smiles	per cent of control / %
COC(=O)Nc1ccc(-c2nc(N3CCOCC3)c3cnn(C4CCN(C(=O)OC)CC4)c3n2)cc1	75
CCC(=O)N1CCN(c2ccc(-n3c(=O)ccc4cnc5ccc(-c6cnc7ccccc7c6)cc5c43)cc2C(F)(F)F)CC1	17
COc1ccc(-c2ccc3c(N4CCOCC4)nc(N4C[C@@H](C)O[C@@H](C)C4)nc3n2)cc1CO	72

Query: Return reported per cent of control; argument: CC(C)n1nc(-c2cc3cc(O)ccc3[nH]2)c2c(N)ncnc21
Reply: 13

----------
Biological target: MARK1 (human)
Experiment: KINOMEscan competition binding
Details: compound 10.0 µM
Quantity Name: kinase still bound, per cent of control (%)
Numbers only, in %.

Below are worked cases with known answers.
Chem Smiles	kinase still bound, per cent of control (%)
COc1ccc(-c2ccc3c(N4CCOCC4)nc(N4C[C@@H](C)O[C@@H](C)C4)nc3n2)cc1CO	100
CC(C)n1nc(-c2cc3cc(O)ccc3[nH]2)c2c(N)ncnc21	81

Batch lookup, kinase still bound, per cent of control per entry.
1. CCC(=O)N1CCN(c2ccc(-n3c(=O)ccc4cnc5ccc(-c6cnc7ccccc7c6)cc5c43)cc2C(F)(F)F)CC1
2. COC(=O)Nc1ccc(-c2nc(N3CCOCC3)c3cnn(C4CCN(C(=O)OC)CC4)c3n2)cc1

Reply:
100
100

----------
Biological target: UniProt Q96GD4
Sequence (Q96GD4 whole entry, looked up): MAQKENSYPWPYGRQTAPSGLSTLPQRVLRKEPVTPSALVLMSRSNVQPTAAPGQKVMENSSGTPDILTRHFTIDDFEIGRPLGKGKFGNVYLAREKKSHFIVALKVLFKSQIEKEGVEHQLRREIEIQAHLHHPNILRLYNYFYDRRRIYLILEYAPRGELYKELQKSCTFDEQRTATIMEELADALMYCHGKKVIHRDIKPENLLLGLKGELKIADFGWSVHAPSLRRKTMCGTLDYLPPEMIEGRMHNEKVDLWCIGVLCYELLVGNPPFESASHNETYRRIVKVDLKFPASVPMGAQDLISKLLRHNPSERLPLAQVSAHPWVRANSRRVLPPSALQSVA
Details: compound 10.0 µM
Quantity Name: per cent of control (%)
Answers are plain numbers, in %.

Below are worked cases with known answers.
Chem Smiles	Obs Value
COc1ccc(-c2ccc3c(N4CCOCC4)nc(N4C[C@@H](C)O[C@@H](C)C4)nc3n2)cc1CO	86
COC(=O)Nc1ccc(-c2nc(N3CCOCC3)c3cnn(C4CCN(C(=O)OC)CC4)c3n2)cc1	100
CC(C)n1nc(-c2cc3cc(O)ccc3[nH]2)c2c(N)ncnc21	27

Now look at this entry.
Query: Return reported per cent of control; argument: CCC(=O)N1CCN(c2ccc(-n3c(=O)ccc4cnc5ccc(-c6cnc7ccccc7c6)cc5c43)cc2C(F)(F)F)CC1
Reply: 90

----------
Target: MAP3K7 (human) (UniProt O43318)
Sequence (O43318 whole entry, looked up): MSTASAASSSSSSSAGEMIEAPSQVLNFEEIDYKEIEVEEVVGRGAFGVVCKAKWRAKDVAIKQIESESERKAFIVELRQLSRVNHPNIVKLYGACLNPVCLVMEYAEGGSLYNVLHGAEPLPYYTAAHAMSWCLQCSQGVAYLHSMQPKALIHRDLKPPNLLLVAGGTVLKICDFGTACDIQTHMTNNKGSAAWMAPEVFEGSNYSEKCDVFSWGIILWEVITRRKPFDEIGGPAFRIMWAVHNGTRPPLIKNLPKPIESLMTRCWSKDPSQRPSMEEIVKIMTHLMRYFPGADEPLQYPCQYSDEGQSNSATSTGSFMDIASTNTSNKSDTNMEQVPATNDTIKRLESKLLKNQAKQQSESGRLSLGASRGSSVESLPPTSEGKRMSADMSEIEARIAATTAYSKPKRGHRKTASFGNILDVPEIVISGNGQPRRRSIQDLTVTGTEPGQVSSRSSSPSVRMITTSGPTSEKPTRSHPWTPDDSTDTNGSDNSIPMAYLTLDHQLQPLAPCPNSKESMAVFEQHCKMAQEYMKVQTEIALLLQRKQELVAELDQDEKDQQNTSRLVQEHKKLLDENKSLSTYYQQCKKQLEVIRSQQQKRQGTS
Assay: KINOMEscan competition binding
Conditions: compound 10.0 µM
Field: kinase still bound, per cent of control. Provide a value for each of the compounds that follow.
Give bare numbers, in %.

Below are worked cases with known answers.
Chem Smiles	Obs Value
COC(=O)Nc1ccc(-c2nc(N3CCOCC3)c3cnn(C4CCN(C(=O)OC)CC4)c3n2)cc1	70
COc1ccc(-c2ccc3c(N4CCOCC4)nc(N4C[C@@H](C)O[C@@H](C)C4)nc3n2)cc1CO	99
CC(C)n1nc(-c2cc3cc(O)ccc3[nH]2)c2c(N)ncnc21	22

Now look at this entry.
Query: Return reported kinase still bound, per cent of control; argument: CCC(=O)N1CCN(c2ccc(-n3c(=O)ccc4cnc5ccc(-c6cnc7ccccc7c6)cc5c43)cc2C(F)(F)F)CC1
Reply: 47

----------
Target: ERBB4 (human)
Experiment: KINOMEscan competition binding
Details: compound 10.0 µM
Quantity Name: kinase still bound, per cent of control (%)
Give bare numbers, in %.

Chem Smiles	Obs Value
CC(C)n1nc(-c2cc3cc(O)ccc3[nH]2)c2c(N)ncnc21	49
CCC(=O)N1CCN(c2ccc(-n3c(=O)ccc4cnc5ccc(-c6cnc7ccccc7c6)cc5c43)cc2C(F)(F)F)CC1	100
COc1ccc(-c2ccc3c(N4CCOCC4)nc(N4C[C@@H](C)O[C@@H](C)C4)nc3n2)cc1CO	89

Query: Return reported kinase still bound, per cent of control; argument: COC(=O)Nc1ccc(-c2nc(N3CCOCC3)c3cnn(C4CCN(C(=O)OC)CC4)c3n2)cc1
Reply: 98
